ASSAYED TARGET: BChE (Equine) (Equus caballus, UniProt P81908)
Construct: purchased Sigma-Aldrich (Steinheim, Germany)
Sequence (P81908 whole entry): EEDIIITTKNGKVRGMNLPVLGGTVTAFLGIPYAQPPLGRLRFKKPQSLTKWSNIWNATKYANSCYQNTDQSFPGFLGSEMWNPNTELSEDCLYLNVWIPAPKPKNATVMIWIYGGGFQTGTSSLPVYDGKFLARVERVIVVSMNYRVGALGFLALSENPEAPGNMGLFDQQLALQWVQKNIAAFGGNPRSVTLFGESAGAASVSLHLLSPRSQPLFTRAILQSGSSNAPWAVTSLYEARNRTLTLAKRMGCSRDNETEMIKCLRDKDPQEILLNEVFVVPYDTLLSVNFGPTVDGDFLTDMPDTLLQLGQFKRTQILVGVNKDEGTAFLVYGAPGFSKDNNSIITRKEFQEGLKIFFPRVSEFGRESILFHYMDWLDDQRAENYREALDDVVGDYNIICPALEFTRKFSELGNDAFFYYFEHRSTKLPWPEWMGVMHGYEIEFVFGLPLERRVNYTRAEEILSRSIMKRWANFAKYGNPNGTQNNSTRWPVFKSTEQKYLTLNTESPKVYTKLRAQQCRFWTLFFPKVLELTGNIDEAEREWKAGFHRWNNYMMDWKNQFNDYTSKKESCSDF
METHOD DESCRIPTION: biochemical
Format: biochemical
APPLIED CONDITIONS: 10^-4 M
Overview of recorded BChE (Equine) inhibitory activity (%) ± SD for various molecules
Please reply with the bare figure in % and do not write the unit itself.

Example entries and their recorded answers appear below.
COMPOUND STRUCTURE STRING	U	READOUT VALUE
COc1ccc(N2CCN(C(=S)SCC(=O)Nc3c4ccccc4nc4ccccc34)CC2)cc1	%	12.64
O=C(CSC(=S)N1CCN(Cc2ccccc2)CC1)Nc1c2ccccc2nc2ccccc12	%	25.14
O=C(CSC(=S)N1CCN(c2ncccn2)CC1)Nc1c2ccccc2nc2ccccc12	%	27.86
CCN1CCN(C(=S)SCC(=O)Nc2c3ccccc3nc3ccccc23)CC1	%	22.70

Q: Answer with the recorded BChE (Equine) inhibitory activity (%) ± SD of `O=C(CSC(=S)N1CCOCC1)Nc1c2ccccc2nc2ccccc12` only.
A: 45.30

Q: Answer with the recorded BChE (Equine) inhibitory activity (%) ± SD of `O=C(CSC(=S)N1CCN(c2ccc([N+](=O)[O-])cc2)CC1)Nc1c2ccccc2nc2ccccc12` only.
A: 40.19
